These data points were gathered from PubChem BioAssay (Tox21).

test: qHTS assay to identify small molecule agonists of the estrogen related receptor signaling pathway with the pleiotropic PPARgamma coactivator (PGC) from Tox21 10K library (AID 1224842); conditions: PGC/ERR reporter cell line, luciferase ONE-Glo, 18 h; series mostly up to 92.4 µM; further: nearly all actives have a fitted effect of over 15% in size
Records with an inconclusive call do not appear. The source made the active and inactive calls. The call rests on the fitted dose curve; in most records, active means well fitted activation curve with a large enough effect in the repeat runs; inconclusive means weak or mixed curves, or effect the other way; inactive means no such curve, though single readings can be large or run the other way.

- compound: "O=Cc1ccccc1Cl"
  outcome: "inactive"
- compound: "c1ccc(B(c2ccccc2)c2ccccc2)cc1"
  outcome: "inactive"
- compound: "CC(C)(C)NC[C@H](O)COc1cccc2c1CCCC2=O"
  outcome: "inactive"
- compound: "OC[C@@H](O)C(O)[C@@H](O)CO (some centres not stated)"
  outcome: "inactive"
- compound: "CC(C)C[C@@H]1[C@H](c2ccccc2)OC(=O)N1CCCN1CCCCCC1"
  outcome: "inactive"
- compound: "Nc1nc(-c2ccccc2)c(Br)c(=O)[nH]1"
  outcome: "inactive"
- compound: "CN(C)CCCO[C@@H]1[C@H]2OC(C)(C)O[C@H]2O[C@@H]1C(O)CO (some centres not stated)"
  outcome: "inactive"
- compound: "CC1c2ccccc2CN1NC(=O)c1ccc(Cl)c(S(N)(=O)=O)c1 (configuration not stated)"
  outcome: "inactive"
- compound: "c1ccc(-c2nn[nH]n2)cc1"
  outcome: "inactive"
- compound: "CC1=C(C(=O)O)N2C(=O)[C@@H](NC(=O)[C@H](N)c3ccccc3)[C@H]2SC1"
  outcome: "inactive"
- compound: "CC(C)(CO)C(O)C(=O)NCCCO (configuration not stated)"
  outcome: "inactive"
- compound: "CCCC(=O)OCCC(C)CCC=C(C)C (configuration not stated)"
  outcome: "inactive"
- compound: "CCC(=O)CC"
  outcome: "inactive"
- compound: "c1ccc2c(CC3=NCCN3)cccc2c1"
  outcome: "inactive"
- compound: "CCC(=O)c1c(O)cc(O)cc1O"
  outcome: "inactive"
- compound: "O=C(O)CCCCCC(=O)O"
  outcome: "inactive"
- compound: "C/C=C(\\C)C(=O)OCCc1ccccc1"
  outcome: "inactive"
